# target_or_test_system: T1, Lsb1, P53281
# T1 sequence (P53281 45-122, looked up): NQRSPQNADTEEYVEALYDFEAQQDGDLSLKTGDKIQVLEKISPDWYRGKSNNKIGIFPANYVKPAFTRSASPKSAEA
# assay_info: SPOT array
# applied_conditions: median of control spots 388
endpoint_label: SPOT intensity

What does the record list as SPOT intensity for KRNRLKILLPFLEQS ?
34

Request: LASNSPPVYPKRIRH
0

Request: NMLSRPRLAKLPSIR
59

Request: APKREAPKPPANTSP
0
